B1: KRT13 (parent)
chain: KTIEELRDKILTATIENNRVILEI

# Variants of: B1
# METHOD NOTES: protein stability index of a GFP-peptide fusion (GPS, HEK-293T) (PSI 1-6); higher = more stable;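 note: lentivirally expressed fusions sorted by FACS into six bins by GFP to DsRed ratio, PSI derived from sequencing read proportions per bin multiplied by bin number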
# CONDITION DESCRIPTION: c terminus: a fixed tail appended
Quick rule for you: protein stability index at 2 or higher means satisfied, lower means not satisfied.

-- ask Could you tell me if the measured protein stability index of E16Y reaches 2 or more?
-- reply not satisfied

-- ask Could you tell me if the measured protein stability index of K1E reaches 2 or more?
-- reply satisfied

-- ask Could you tell me if the measured protein stability index of R7Q reaches 2 or more?
-- reply satisfied

-- ask Could you tell me if the measured protein stability index of L22K reaches 2 or more?
-- reply satisfied

-- ask Could you tell me if the measured protein stability index of E23Y reaches 2 or more?
-- reply satisfied

-- ask Could you tell me if the measured protein stability index of R19E reaches 2 or more?
-- reply satisfied

-- ask Could you tell me if the measured protein stability index of I21G reaches 2 or more?
-- reply not satisfied

-- ask Could you tell me if the measured protein stability index of I24C reaches 2 or more?
-- reply satisfied

-- ask Could you tell me if the measured protein stability index of A13D reaches 2 or more?
-- reply not satisfied
